biological target: GST-tagged mouse Mcl-1-(152–309) (Mus musculus, UniProt P97287); experiment: Fluorescence polarization competitive binding assay, GST-Mcl-1 / FITC-Bim-BH3; conditions: FP, compound at 50 µM
Sequence (P97287 152-309): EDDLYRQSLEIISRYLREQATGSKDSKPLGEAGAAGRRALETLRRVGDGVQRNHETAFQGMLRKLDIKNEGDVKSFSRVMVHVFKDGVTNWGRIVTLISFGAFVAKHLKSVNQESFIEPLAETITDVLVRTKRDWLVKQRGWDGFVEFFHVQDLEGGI
Property name: inhibition at 50 µM (%)
Write the answer as a number in %, unit excluded.

inhibition at 50 µM for `[N-]=[N+]=NS(=O)(=O)c1ccc(CN(CCSc2ccccc2)Cc2ccc(S(=O)(=O)NC(=O)c3ccccc3)cc2)cc1` ?
97.3

Can you handle NS(=O)(=O)c1ccc(CN(CCSc2ccccc2)Cc2ccc(S(=O)(=O)NC(=O)CC3Sc4ccccc4NC3=O)cc2)cc1 (stereo not shown) next?
64.1

Try the compound `O=C(NS(=O)(=O)c1ccc(CN(CCSc2ccccc2)Cc2c(F)cccc2Cl)cc1)c1ccccc1`
92.5

Follow-up entry: `O=C(NS(=O)(=O)c1ccc(CNc2cccc([N+](=O)[O-])c2)cc1)c1ccc(CN2C(=O)C(c3ccc(F)cc3F)=C(c3ccc(F)cc3F)C2=O)cc1`
89.4

Then what about the compound `O=C(NS(=O)(=O)c1ccc(-c2ccc(Oc3ccccc3)cc2)cc1)c1ccc(CCc2ccccn2)cc1` ?
89.2

For `Cc1nc(-c2ccccc2)sc1C(=O)NS(=O)(=O)c1ccc(CN(CCSc2ccccc2)Cc2c(F)cccc2Cl)cc1` then?
95.9

Another compound to check: `O=C(NS(=O)(=O)c1ccc(CN(CCSc2ccccc2)Cc2c(F)cccc2Cl)cc1)c1ccc(CCc2ccccn2)cc1`
89.5

Try COc1cc2c(cc1OC)C(c1ccccc1)N(Cc1ccc(S(=O)(=O)NC(=O)CCCN3C(=O)C(c4ccc(F)cc4F)=C(c4ccc(F)cc4F)C3=O)cc1)CC2 (stereo not shown) next.
19.2

====

target: Mcl-1 (Mus musculus, UniProt P97287); test: Multifragment KTGS screen against Mcl-1 (5 TA x 38 SZ per well), LC-MS/MS; details: multifragment KTGS, 190 combinations per well, 10 μM Mcl-1, 20 μM each fragment, pH 7.4, 37 °C, 10 h; peak area with protein / without protein
Sequence (P97287 whole entry, the tested form may be a part): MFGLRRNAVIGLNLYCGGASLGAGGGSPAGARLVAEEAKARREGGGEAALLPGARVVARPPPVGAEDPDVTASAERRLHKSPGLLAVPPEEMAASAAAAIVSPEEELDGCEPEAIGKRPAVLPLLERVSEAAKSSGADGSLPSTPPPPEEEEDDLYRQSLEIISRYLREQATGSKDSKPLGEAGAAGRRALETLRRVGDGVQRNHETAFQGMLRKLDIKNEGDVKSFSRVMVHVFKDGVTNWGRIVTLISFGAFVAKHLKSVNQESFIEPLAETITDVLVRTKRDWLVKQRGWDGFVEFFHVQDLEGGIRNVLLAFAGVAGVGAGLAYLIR
Kindly supply the reported Amplification coefficient 5TA x 38SZ values for the records listed here.
Respond using a number only.

Could you tell me which Amplification coefficient 5TA x 38SZ is on file for `O=C(NS(=O)(=O)c1ccc(CN(CCSc2ccccc2)Cc2ccc3c(c2)OCO3)cc1)c1cccc(NCCc2ccccc2)c1` ?
10

Please give the result for `Cc1noc(C)c1-c1ccc(S(=O)(=O)NC(=O)c2ccc(CN3C(=O)C(c4ccc(F)cc4F)=C(c4ccc(F)cc4F)C3=O)cc2)cc1` too.
10

Further, for `COc1cc(OC)cc(C(=O)NS(=O)(=O)c2ccc(CN(CCSc3ccccc3)Cc3ccc(S(=O)(=O)N=[N+]=[N-])cc3)cc2)c1` ?
8

====

target: GST-tagged mouse Mcl-1-(152–309) (Mus musculus); experiment: Fluorescence polarization competitive binding assay, GST-Mcl-1 / FITC-Bim-BH3; details: FP, compound at 50 µM
Record form. Attribute: inhibition at 50 µM. Fill in for each entry.
Entry rule: numbers only, all in %.

Hello, I am looking for reported inhibition at 50 µM with GST-tagged mouse Mcl-1-(152–309) (Mus musculus) for [N-]=[N+]=NS(=O)(=O)c1ccc(CN(CCSc2ccccc2)Cc2ccc(S(=O)(=O)NC(=O)c3ccc(-c4ccccn4)cc3)cc2)cc1 [SZ9TA25] . Could you help?
47.6

How about this compound: Cn1cc(C(=O)c2cccs2)c2cc(C(=O)NS(=O)(=O)CCN(CCSc3ccccc3)Cc3ccc4c(c3)OCO4)ccc21 [SZ28TA45]
54

Entry to check: O=C(NS(=O)(=O)c1ccc(-c2ccc(C(F)(F)F)cc2)cc1)c1cccc(NCCc2ccccc2)c1 [SZ16TA44]
98.1

What do we get for COc1cccc(CN(CCSc2ccccc2)Cc2ccc(S(=O)(=O)NC(=O)c3ccc(-c4ccccn4)cc3)cc2)c1 [SZ17TA25] ?
93.6

Now consider O=C(NS(=O)(=O)c1ccc(CN(CCSc2ccccc2)Cc2c(F)cccc2Cl)cc1)c1ccc(OC(F)(F)F)cc1 [SZ15TA8] and answer again.
96.5
